Test system: HCT-116 colon
procedure.summary: NCI-60 one-dose screen, 48 h (100 = growth as untreated, 0 = no growth, -100 = all killed)
condition: 10 µM unless noted
The panel holds about 83,000 compounds, 20% with a hit somewhere; the sample as a whole holds those more often. Calls of active or inactive are those of the source. Rule for the calls: active = growth percent below 10; inactive = the rest.

[
  {
    "structure.string": "CN1CCN(Cc2ccc(NC(=O)c3cccc(C#Cc4cnc(N)c5ncccc45)c3F)cc2C(F)(F)F)CC1",
    "growth": "-67.5% (active)"
  },
  {
    "structure.string": "[Ag].[Ag].[NH-]S(=O)(=O)c1ccc(N=Nc2cc(N=Nc3ccc(S([NH-])(=O)=O)cc3)c3c(NC(=O)C(Cl)Cl)cccc3c2OC(=O)C(Cl)Cl)cc1.[c-]1nccs1.[c-]1nccs1",
    "growth": "65.4% (inactive)"
  },
  {
    "structure.string": "Cc1cc(C)cc(Nc2cc(C)nc3nc(C(F)(F)F)nn23)c1",
    "growth": "19.2% (inactive)"
  }
]

* * *

Test system: SN12C renal
procedure.summary: NCI-60 one-dose screen, 48 h
condition: 10 µM unless noted
The panel holds about 83,000 compounds, 20% with a hit somewhere; the sample as a whole holds those more often. The source made the active and inactive calls. Rule for the calls: active = growth percent below 10; inactive = the rest.
Labels: YES (active), NO (inactive)

[
  {
    "compound": "O=C(/C=C/c1cc([N+](=O)[O-])ccc1Cl)c1ccccc1",
    "tgt": "SN12C renal",
    "assigned.label": "NO"
  },
  {
    "compound": "CCN(CC)Cc1cc(Nc2nc(NC3CCC(N(C)C)CC3)c3ccccc3n2)ccc1OC (centres undefined)",
    "tgt": "SN12C renal",
    "assigned.label": "NO"
  },
  {
    "compound": "O=C1OCC2=C1C(c1cccc(Br)c1)c1cc3c(cc1N2CCO)OCCO3 (centres undefined)",
    "tgt": "SN12C renal",
    "assigned.label": "NO"
  },
  {
    "compound": "CC(=O)OC1Oc2cc(C)c(C)cc2-c2oc(=O)c(-c3ccc(F)cc3)cc21 (centres undefined)",
    "tgt": "SN12C renal",
    "assigned.label": "NO"
  },
  {
    "compound": "NC(N)=N/N=C/c1ccccc1",
    "tgt": "SN12C renal",
    "assigned.label": "NO"
  },
  {
    "compound": "COCCOCCOCc1n(Cc2ccc3ccccc3n2)c2ccccc2[n+]1Cc1ccc2ccccc2c1",
    "tgt": "SN12C renal",
    "assigned.label": "YES"
  },
  {
    "compound": "CC(C)NCCCCCNc1cc(O)cc2cccnc12",
    "tgt": "SN12C renal",
    "assigned.label": "NO"
  },
  {
    "compound": "CC(=O)O[C@H]1[C@H](CC#CC#CC[C@@H]2C[C@]3(C)[C@H]4CC=C5[C@H]6[C@@H](C)[C@H](C)CC[C@]6(C(=O)NCCN(CCN)CCN)CC[C@@]5(C)[C@]4(C)CC[C@H]3C(C)(C)[C@H]2OC(C)=O)C[C@]2(C)[C@H]3CC=C4[C@H]5[C@@H](C)[C@H](C)CC[C@]5(C(=O)NCCN(CCN)CCN)CC[C@@]4(C)[C@]3(C)CC[C@H]2C1(C)C",
    "tgt": "SN12C renal",
    "assigned.label": "NO"
  },
  {
    "compound": "Cc1ccc(C2CC(c3cccs3)=NN2c2ccc(S(N)(=O)=O)cc2)s1 (centres undefined)",
    "tgt": "SN12C renal",
    "assigned.label": "NO"
  }
]

* * *

growth listing for selected molecules.
Test system: EKVX NSCLC
procedure.summary: NCI-60 one-dose screen, 48 h (100 = growth as untreated, 0 = no growth, -100 = all killed)
condition: 10 µM unless noted
Compounds without any hit were thinned out: in the full panel of roughly 83,000, 20% have a hit.
reported.endpoint: growth (%)

[
  {
    "structure.string": "O=C1/C(=C\\c2cccn2Cc2ccc(F)cc2)c2ccccc2N1c1c(Cl)cccc1Cl",
    "endpoint.unit": "%",
    "val": 54.6
  },
  {
    "structure.string": "Cc1c(-c2ccc(-c3ccccc3F)cc2)nc2ccc(F)cc2c1C(=O)O",
    "endpoint.unit": "%",
    "val": 55
  },
  {
    "structure.string": "O=C(CSc1ccc(Cl)cc1)Nc1ccc(-c2nc3ccccc3s2)c(Cl)c1",
    "endpoint.unit": "%",
    "val": 59.6
  },
  {
    "structure.string": "COc1ccc(-c2oc(=O)ccc2-c2cc(OC)c(OC)c(OC)c2)cc1F",
    "endpoint.unit": "%",
    "val": 99.6
  }
]

* * *

Tested on: A498 renal
procedure.summary: NCI-60 one-dose screen, 48 h (100 = growth as untreated, 0 = no growth, -100 = all killed)
condition: 10 µM unless noted
Description: Growth inhibition of the A498 human tumor cell line is measured as a screen for anti-cancer activity. Cells are grown in 96 well plates and exposed to the test compound for 48 hours. Compounds are tested at a single concentration, which is 10^-5 M for most compounds. The reported endpoint is percent growth (GI% or GIPRCNT), where numbers from 0 - 100% represent growth inhibition, and numbers from -100% - 0 represent cell death. For example, a value of 40 represents 60% growth inhibition. […]
About 83,000 compounds went through this panel and 20% of them were active in at least one assay; those are over-represented in the sample as a whole.
Threshold -10%: growth strictly smaller gives Fulfilled, otherwise Not fulfilled.

[
  {
    "compound": "CCCCNCC(O)c1cc2c(Cl)cc(Cl)cc2c2cc(C(F)(F)F)ccc12 (configuration not stated)",
    "assigned.label": "Fulfilled"
  },
  {
    "compound": "Cc1cc(C)cc(Nc2cc(C)nc3nc(C(F)(F)F)nn23)c1",
    "assigned.label": "Not fulfilled"
  },
  {
    "compound": "O=C1C=CC(=O)N1CO",
    "assigned.label": "Not fulfilled"
  },
  {
    "compound": "COc1cc(OC)cc(-c2n/c(=C\\c3c(O)[nH]c4ccc(Cl)cc34)cc3c2=Nc2ccccc2-3)c1",
    "assigned.label": "Not fulfilled"
  },
  {
    "compound": "CCOc1ccc([C@@H]2[C@@H](Oc3ccccc3)C(=O)N2c2cc(OC)c(OC)c(OC)c2)cc1",
    "assigned.label": "Not fulfilled"
  },
  {
    "compound": "C/C(=N\\NC(=S)Nc1ccccc1)c1ccccn1",
    "assigned.label": "Not fulfilled"
  },
  {
    "compound": "Fc1[nH]nc2ccc([C@@H]3Nc4ccc5[nH]ncc5c4[C@H]4C5CCC(C5)[C@@H]34)cc12 (some centres not stated)",
    "assigned.label": "Fulfilled"
  }
]

* * *

System: ACHN renal
procedure.summary: NCI-60 one-dose screen, 48 h
condition: 10 µM unless noted
The panel holds about 83,000 compounds, 20% with a hit somewhere; the sample as a whole holds those more often. The source made the active and inactive calls. The calls were made as follows: active = growth percent below 10; inactive = the rest.
Labels: active, inactive

[
  {
    "molecule": "COC1CC(N)C2OC(c3ccccc3)OCC2O1 (configuration not stated)",
    "tgt": "ACHN renal",
    "assigned.label": "inactive"
  },
  {
    "molecule": "C[C@]12CCc3nc(Nc4ccc(O)cc4)sc3C1=CC[C@@H]1[C@@H]2CC[C@]2(C)/C(=N/NC(N)=S)CC[C@@H]12",
    "tgt": "ACHN renal",
    "assigned.label": "active"
  },
  {
    "molecule": "CCN(C)CCCOc1ccc(/C(=C(\\C)Cc2cccc(OC)c2)c2ccc(OC(C)=O)cc2)cc1",
    "tgt": "ACHN renal",
    "assigned.label": "inactive"
  },
  {
    "molecule": "Cc1cc(C)c([O-])c(CN(C)CCN(C)Cc2cc(C)cc(C)c2[O-])c1.O=C([O-])c1cccc(C(=O)[O-])n1.[Ti+4]",
    "tgt": "ACHN renal",
    "assigned.label": "inactive"
  },
  {
    "molecule": "Cc1ccc(S(=O)(=O)NC(CCC(=O)Nc2ccc(Cl)cc2)C(=O)Nc2ccc(Cl)cc2)cc1 (configuration not stated)",
    "tgt": "ACHN renal",
    "assigned.label": "inactive"
  },
  {
    "molecule": "COc1c(-c2cc(-c3ccc(C)o3)[nH]c(=O)n2)c(O)cc2occc12",
    "tgt": "ACHN renal",
    "assigned.label": "inactive"
  },
  {
    "molecule": "CCN(CC)CCNc1c(C)cc(CO)c(Cl)c1C",
    "tgt": "ACHN renal",
    "assigned.label": "inactive"
  },
  {
    "molecule": "COc1cc(/C=C/c2ccc3c(Br)cc(Br)c(O)c3n2)ccc1O",
    "tgt": "ACHN renal",
    "assigned.label": "inactive"
  },
  {
    "molecule": "O=c1c2sc3ncc(Cl)cc3c2nnn1-c1cccc(Cl)c1",
    "tgt": "ACHN renal",
    "assigned.label": "inactive"
  },
  {
    "molecule": "c1ccc(C(CC2=NCCCN2)c2ccccc2)cc1",
    "tgt": "ACHN renal",
    "assigned.label": "inactive"
  },
  {
    "molecule": "C/C=C(\\C)C(C(=O)NC1CCCCC1)N(C(=O)C1CCc2cc(F)ccc2O1)c1ccc([N+](=O)[O-])cc1 (configuration not stated)",
    "tgt": "ACHN renal",
    "assigned.label": "inactive"
  },
  {
    "molecule": "c1ccc2c(Cc3csc4ccccc34)csc2c1",
    "tgt": "ACHN renal",
    "assigned.label": "inactive"
  },
  {
    "molecule": "C#CC[C@@H]1C[C@]2(C)[C@H]3CC[C@@H]4[C@H]5C(C(=C)C)CC[C@]5(C(=O)NCCCCCCCCN)CC[C@@]4(C)[C@]3(C)CC[C@H]2C(C)(C)[C@H]1OC(C)=O (some centres not stated)",
    "tgt": "ACHN renal",
    "assigned.label": "inactive"
  },
  {
    "molecule": "CC1CCN(Cc2ccc(NC(=O)c3cc4ccc5cccnc5c4[nH]3)cc2)CC1",
    "tgt": "ACHN renal",
    "assigned.label": "inactive"
  },
  {
    "molecule": "CC1=C(C(=O)Nc2ccc(F)cc2)C(c2ccc(C)cc2)C2=C(CC(C)(C)CC2=O)N1 (configuration not stated)",
    "tgt": "ACHN renal",
    "assigned.label": "inactive"
  },
  {
    "molecule": "Cc1n(Cc2ccc3ccccc3n2)cc[n+]1Cc1ccc2ccccc2n1",
    "tgt": "ACHN renal",
    "assigned.label": "inactive"
  },
  {
    "molecule": "COc1ccc(C(=O)c2c(N)nc3n2CCCC3)cc1OC",
    "tgt": "ACHN renal",
    "assigned.label": "inactive"
  }
]
